Molecular target: T1, TJP3_2, O95049
T1 sequence (O95049 190-282, limits assumed, looked up): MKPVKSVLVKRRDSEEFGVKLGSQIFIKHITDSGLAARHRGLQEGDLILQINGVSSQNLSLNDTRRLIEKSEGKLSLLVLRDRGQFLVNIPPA
Assay: holdup assay
Parameters: key: below the threshold = too weak to quantify, mostly under pKd 3.1 to 4
Details: plain residues with an end cap or a label only (N-terminal biotin on a linker: ttds)
QUANTITY_KIND: pKd

Field: example entries. Status: answers known.
{"BINDER": "KLVIKTETTV [RASSF6, Q6ZTQ3]", "pKd": "below the threshold"}
{"BINDER": "SHSSKGETAV [FZD7, O75084]", "pKd": "below the threshold"}
{"BINDER": "SRSRRRETAL [HPV33-E6, P06427]", "pKd": "below the threshold"}
{"BINDER": "SSIDLWETAL [SLC15A5, A6NIM6]", "pKd": "below the threshold"}
{"BINDER": "PSRDRKETSI [RALBP1, Q15311]", "pKd": "below the threshold"}

Shifting focus to the binder that follows.
PPRQRSETQV [HPV82-E6, Q9IR59] has a reported pKd of below the threshold
